Exercise: for every item that follows, state its recorded inhibition at an equimolar probe:competitor ratio.
Form field: result (number plus unit)

### Prompt Provide measured inhibition at an equimolar probe:competitor ratio on GST-Nef (HIV-1 NL4-3 Nef containing a T71R change) (HIV-1 NL4-3) [GST: P08515] for GST-RRT.A1 (Hck-derived RRT-SH3 domain, RT-loop VSWSPD) (from UniProt P08631 62-118) (designed binder) please.
### Response 55%

### Prompt Provide measured inhibition at an equimolar probe:competitor ratio on GST-Nef (HIV-1 NL4-3 Nef containing a T71R change) (HIV-1 NL4-3) [GST: P08515] for GST-RRT.A2 (Hck-derived RRT-SH3 domain, RT-loop FSWSDT) (from UniProt P08631 62-118) (designed binder) please.
### Response 20%

### Prompt Provide measured inhibition at an equimolar probe:competitor ratio on GST-Nef (HIV-1 NL4-3 Nef containing a T71R change) (HIV-1 NL4-3) [GST: P08515] for GST-RRT.C3 (Hck-derived RRT-SH3 domain, RT-loop YSDFPW) (from UniProt P08631 62-118) (designed binder) please.
### Response 42%
